As an illustration, consider measured MIC for molecules on Klebs. pneu..
Don't forget the unit after the number, please.

CPD SMILES: CC1(C)S[C@@H]2[C@H](NC(=O)[C@H](NC(=O)c3ccc(-c4ccc(NS(=O)(=O)c5cccnc5)cc4)[nH]c3=O)c3ccccc3)C(=O)N2[C@H]1C(=O)O
MIC: 6.3 µg/mL
--
CPD SMILES: CC1(C)S[C@@H]2[C@H](NC(=O)[C@H](NC(=O)c3ccc(-c4ccc(NS(=O)(=O)C(F)(F)F)cc4)[nH]c3=O)c3ccc(O)cc3)C(=O)N2[C@H]1C(=O)O
MIC: 25 µg/mL
--
CPD SMILES: CC1(C)S[C@@H]2[C@H](NC(=O)[C@H](NC(=O)c3ccc(-c4ccc(NS(=O)(=O)C(F)(F)F)cc4)[nH]c3=O)c3ccccc3)C(=O)N2[C@H]1C(=O)O
MIC: 3.1 µg/mL

// map CC1(C)S[C@@H]2[C@H](NC(=O)[C@H](NC(=O)c3ccc(-c4ccc(NS(C)(=O)=O)cc4)[nH]c3=O)c3ccc(O)cc3)C(=O)N2[C@H]1C(=O)O to recorded MIC (system: Klebs. pneu.)
3.1 µg/mL

// map CC1(C)S[C@@H]2[C@H](NC(=O)[C@H](NC(=O)c3ccc(-c4ccc(NS(C)(=O)=O)cc4)[nH]c3=O)c3ccccc3)C(=O)N2[C@H]1C(=O)O to recorded MIC (system: Klebs. pneu.)
3.1 µg/mL

// map CC1(C)S[C@@H]2[C@H](NC(=O)[C@H](NC(=O)c3ccc(-c4cccc(NS(C)(=O)=O)c4)[nH]c3=O)c3ccccc3)C(=O)N2[C@H]1C(=O)O to recorded MIC (system: Klebs. pneu.)
1.6 µg/mL

// map CCCS(=O)(=O)Nc1ccc(-c2ccc(C(=O)N[C@@H](C(=O)N[C@@H]3C(=O)N4[C@@H]3SC(C)(C)[C@@H]4C(=O)O)c3ccccc3)c(=O)[nH]2)cc1 to recorded MIC (system: Klebs. pneu.)
3.1 µg/mL

---

As an illustration, consider measured MIC for molecules on Serr. marces..
Numeric answer only, unit µg/mL assumed.

CPD SMILES: CC1(C)S[C@@H]2[C@H](NC(=O)[C@H](NC(=O)c3ccc(-c4ccc(NS(=O)(=O)C(F)(F)F)cc4)[nH]c3=O)c3ccccc3)C(=O)N2[C@H]1C(=O)O
TARGET: Serr. marces.
MIC [µg/mL]: 200
//
CPD SMILES: CC(=O)OCCCS(=O)(=O)Nc1ccc(-c2ccc(C(=O)N[C@@H](C(=O)N[C@@H]3C(=O)N4[C@@H]3SC(C)(C)[C@@H]4C(=O)O)c3ccccc3)c(=O)[nH]2)cc1
TARGET: Serr. marces.
MIC [µg/mL]: 100

Kindly review the next molecule as well.
// map CC1(C)S[C@@H]2[C@H](NC(=O)[C@H](NC(=O)c3ccc(-c4cccc(NS(C)(=O)=O)c4)[nH]c3=O)c3ccccc3)C(=O)N2[C@H]1C(=O)O to recorded MIC (system: Serr. marces.)
25

---

As an illustration, consider measured MIC for molecules on Serr. marces..
Numeric answer only, unit µg/mL assumed.

CPD SMILES: CC1(C)S[C@@H]2[C@H](NC(=O)[C@H](NC(=O)c3ccc(-c4ccc(NS(=O)(=O)C(F)(F)F)cc4)[nH]c3=O)c3ccc(O)cc3)C(=O)N2[C@H]1C(=O)O
MIC, µg/mL: 50
//
CPD SMILES: CC1(C)S[C@@H]2[C@H](NC(=O)[C@H](NC(=O)c3ccc(-c4ccc(NS(C)(=O)=O)cc4)[nH]c3=O)c3ccc(O)cc3)C(=O)N2[C@H]1C(=O)O
MIC, µg/mL: 100
//
CPD SMILES: CC1(C)S[C@@H]2[C@H](NC(=O)[C@H](NC(=O)c3ccc(-c4ccc(NS(C)(=O)=O)cc4)[nH]c3=O)c3ccccc3)C(=O)N2[C@H]1C(=O)O
MIC, µg/mL: 50

Kindly review the next molecule as well.
// lookup MIC for CC1(C)S[C@@H]2[C@H](NC(=O)[C@H](NC(=O)c3ccc(-c4ccc(NS(=O)(=O)CCc5ccncc5)cc4)[nH]c3=O)c3ccccc3)C(=O)N2[C@H]1C(=O)O
100
